Molecular target: T1, Human CD33 full length (human, UniProt P20138 18-364)
T1 construct: also called huCD33
T1 sequence (P20138 18-364 limits assumed): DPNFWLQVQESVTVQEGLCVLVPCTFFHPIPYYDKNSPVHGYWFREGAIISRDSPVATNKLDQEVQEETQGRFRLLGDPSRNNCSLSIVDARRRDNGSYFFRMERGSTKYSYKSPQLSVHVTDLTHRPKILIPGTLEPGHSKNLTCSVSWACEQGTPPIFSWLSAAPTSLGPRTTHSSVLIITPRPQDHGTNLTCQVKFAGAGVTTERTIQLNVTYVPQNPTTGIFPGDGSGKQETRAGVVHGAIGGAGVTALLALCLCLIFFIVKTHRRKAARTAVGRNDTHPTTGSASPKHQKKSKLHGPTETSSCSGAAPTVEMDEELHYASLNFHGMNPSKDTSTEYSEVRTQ
Experiment: flow cytometry on HEK293F cells expressing human CD33
recordedEndpoint: MFI at 0.6 nM (MFI)
Numbers only here, please. The scale is MFI.

INSERT INTO assay_data (binder, observedresult) VALUES
  ('C33B909 (antibody, V domains shown, OMNIMouse-derived anti-CD33 mAb; same V regions as C33B901; The OMNIMouse mAbs were cloned into both IgG1 and IgG4 PAA; also called C33H249/C33L115) VH: EVQLVESGGGLVQPGRSLRLSCVASGFTFDDYAIHWVRQAPGKGLEWVSGLSWNGGNIGYADSVKGRFTISRDNAKNSLYLQMNSLKTEDTAFYYCTKDTPYGDYFDYWGQGTLVTVSS VL: DIQMTQSPSSVWASVGDRVTITCRASQGISSWLAWYQQQPGKAPNLLIYRSSSLQSGVPSRFSGSGSGTDFTLTISSLQPEDFATYYCQQDNSFPYTFGQGTKLEIK', 154);

Item C33B916 (antibody, V domains shown, OMNIMouse-derived anti-CD33 mAb; same V regions as C33B908; also called C33H256/C33L122; C33F554) VH: QVQLVESGGGVVQPGRSLRLSCATSGFTFSNYGMHWVRQAPGKGLEWVAVIWYVGSHKYYADSVKGRFTISRDNSKNTLYLQMNSLRAEDTAVYYCARDGSLCFDYWGQGTLVTVSS VL: SYELTQPPSVSVSPGQTANISCSGVTLGYNYAYWYQQKPGQSPILVISQDTQRPSGIPERFSGSNSGNTATLTISGTQAMDEAAYYCQAWDITTVLFGGGTKLTVL has what recorded MFI at 0.6 nM?
193000

Query C33B915 (antibody, V domains shown, OMNIMouse-derived anti-CD33 mAb; same V regions as C33B907; also called C33H255/C33L121; C33F553) VH: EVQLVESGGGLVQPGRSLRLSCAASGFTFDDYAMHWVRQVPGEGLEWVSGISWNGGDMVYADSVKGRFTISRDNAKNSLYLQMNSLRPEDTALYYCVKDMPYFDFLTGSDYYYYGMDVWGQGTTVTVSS VL: SYELTQPPSVSVSPGQTASITCSGDNLGNEHVCWYHQKPGQSPVLVIYQNNKRPSGIPERFSGSNSGNTATLSISGTQATDEADYYCQAWDSTTAVFGGGTKLTVL next
138000

Query C33B912 (antibody, V domains shown, OMNIMouse-derived anti-CD33 mAb; also called C33H252/C33L118; C33F550) VH: EVQLVESGGGLVQPGRSLRLSCAASGFTFDDYAMHWVRQAPGKGLEWVSGIGWSGGSIVYADSVKGRFTISRDNAKNSLYLQMNSLRAEDTALYYCAKDSPYGDFFDYWGQGTLVTVSS VL: DIVMTQSPDSLAVSLGERATINCKSSQTVFYSSNNKNYLAWYQQKPGQPPKLLISWASTRKSGVPDRFSGSGSGTDFTLTVSSLQAEDVAVYYCQHYYSTPYTFGQGTKLEIK next
15700

Query C33B910 (antibody, V domains shown, OMNIMouse-derived anti-CD33 mAb; same V regions as C33B902; also called C33H250/C33L116) VH: EVQLVESGGGLVQPGRSLRLSCAGSGFTFDDYAIHWVRQAPGKGLEWVSGLSWNGGNIGYADSVKGRFTISRDNAKNSLYLQLNSLKTEDTAFYYCAKDSPYGDYFDYWGQGTLVTVSS VL: DIQMTQSPSSEWASVGDRVTITCRASQGISSWLAWYQQKPGKAPKLLIYGASSWQSGVPSRFSGSGSGTDFTLTISSLQPEDFATYYCQQDNSFPYTFGQGTKLEIK next
151

Query C33B914 (antibody, V domains shown, OMNIMouse-derived anti-CD33 mAb; same V regions as C33B906; also called C33H254/C33L120; C33F552) VH: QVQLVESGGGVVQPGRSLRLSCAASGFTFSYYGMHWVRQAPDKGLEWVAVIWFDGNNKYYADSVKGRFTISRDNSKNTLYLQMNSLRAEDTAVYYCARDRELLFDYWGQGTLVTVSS VL: SYELTQPPSVSVSPGQTASITCSGDELGDMYACWYQQKPGQSPLVVIYQDSKRPSGIPERFSGSNSGNTATLTISGTQAMDEAAYYCQTWDTRIAVFGGGTNLTVL next
153000
